Test system: PDC 899932-113-R3-J6 complex spheroid viability;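 note: spheroids exposed to agents for seven days before readout; 100% = DMSO vehicle control wells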
Test: Anticancer human tumor 899932-113-R3-J6-PDC patient-derived melanoma cell line growth inhibition [RAS]
Measurement conditions: second compound 3.16 µM; first compound 0.01 µM; active compounds read low
Reported viability, T/C values for the following molecules.
Quick reminder: number only, in %, skip the unit.

Supply viability, T/C value. Item: CC(C)n1nc(-c2ccc3oc(N)nc3c2)c2c(N)ncnc21 + C#Cc1c(F)ccc2cc(O)cc(-c3ncc4c(N5CC6CCC(C5)N6)nc(OCC56CCCN5CC(F)C6)nc4c3F)c12
112

Supply viability, T/C value. Item: Nc1ccn(C2OC(CO)C(O)C2(F)F)c(=O)n1 (stereo not drawn) + C#Cc1c(F)ccc2cc(O)cc(-c3ncc4c(N5CC6CCC(C5)N6)nc(OCC56CCCN5CC(F)C6)nc4c3F)c12
65.6

Supply viability, T/C value. Item: C=CC(=O)N1CCN(c2nc(OCC3CCCN3C)nc3c(F)c(-c4nc(N)cc(C)c4C(F)(F)F)c(Cl)cc23)C(C)C1 (stereo not drawn) + C#Cc1c(F)ccc2cc(O)cc(-c3ncc4c(N5CC6CCC(C5)N6)nc(OCC56CCCN5CC(F)C6)nc4c3F)c12
113
